Listing: IC50 of selected compounds
biological target: Polθ protein (amino acids 2-2590) (Homo sapiens); assay: Polθ full length enzyme potency assay (PicoGreen); details: Polθ IC50 (nM), full length N-His, C-term FLAG tagged Polθ, PicoGreen fluorescence, 12 point concentration response
Sequence (O75417 2-2590): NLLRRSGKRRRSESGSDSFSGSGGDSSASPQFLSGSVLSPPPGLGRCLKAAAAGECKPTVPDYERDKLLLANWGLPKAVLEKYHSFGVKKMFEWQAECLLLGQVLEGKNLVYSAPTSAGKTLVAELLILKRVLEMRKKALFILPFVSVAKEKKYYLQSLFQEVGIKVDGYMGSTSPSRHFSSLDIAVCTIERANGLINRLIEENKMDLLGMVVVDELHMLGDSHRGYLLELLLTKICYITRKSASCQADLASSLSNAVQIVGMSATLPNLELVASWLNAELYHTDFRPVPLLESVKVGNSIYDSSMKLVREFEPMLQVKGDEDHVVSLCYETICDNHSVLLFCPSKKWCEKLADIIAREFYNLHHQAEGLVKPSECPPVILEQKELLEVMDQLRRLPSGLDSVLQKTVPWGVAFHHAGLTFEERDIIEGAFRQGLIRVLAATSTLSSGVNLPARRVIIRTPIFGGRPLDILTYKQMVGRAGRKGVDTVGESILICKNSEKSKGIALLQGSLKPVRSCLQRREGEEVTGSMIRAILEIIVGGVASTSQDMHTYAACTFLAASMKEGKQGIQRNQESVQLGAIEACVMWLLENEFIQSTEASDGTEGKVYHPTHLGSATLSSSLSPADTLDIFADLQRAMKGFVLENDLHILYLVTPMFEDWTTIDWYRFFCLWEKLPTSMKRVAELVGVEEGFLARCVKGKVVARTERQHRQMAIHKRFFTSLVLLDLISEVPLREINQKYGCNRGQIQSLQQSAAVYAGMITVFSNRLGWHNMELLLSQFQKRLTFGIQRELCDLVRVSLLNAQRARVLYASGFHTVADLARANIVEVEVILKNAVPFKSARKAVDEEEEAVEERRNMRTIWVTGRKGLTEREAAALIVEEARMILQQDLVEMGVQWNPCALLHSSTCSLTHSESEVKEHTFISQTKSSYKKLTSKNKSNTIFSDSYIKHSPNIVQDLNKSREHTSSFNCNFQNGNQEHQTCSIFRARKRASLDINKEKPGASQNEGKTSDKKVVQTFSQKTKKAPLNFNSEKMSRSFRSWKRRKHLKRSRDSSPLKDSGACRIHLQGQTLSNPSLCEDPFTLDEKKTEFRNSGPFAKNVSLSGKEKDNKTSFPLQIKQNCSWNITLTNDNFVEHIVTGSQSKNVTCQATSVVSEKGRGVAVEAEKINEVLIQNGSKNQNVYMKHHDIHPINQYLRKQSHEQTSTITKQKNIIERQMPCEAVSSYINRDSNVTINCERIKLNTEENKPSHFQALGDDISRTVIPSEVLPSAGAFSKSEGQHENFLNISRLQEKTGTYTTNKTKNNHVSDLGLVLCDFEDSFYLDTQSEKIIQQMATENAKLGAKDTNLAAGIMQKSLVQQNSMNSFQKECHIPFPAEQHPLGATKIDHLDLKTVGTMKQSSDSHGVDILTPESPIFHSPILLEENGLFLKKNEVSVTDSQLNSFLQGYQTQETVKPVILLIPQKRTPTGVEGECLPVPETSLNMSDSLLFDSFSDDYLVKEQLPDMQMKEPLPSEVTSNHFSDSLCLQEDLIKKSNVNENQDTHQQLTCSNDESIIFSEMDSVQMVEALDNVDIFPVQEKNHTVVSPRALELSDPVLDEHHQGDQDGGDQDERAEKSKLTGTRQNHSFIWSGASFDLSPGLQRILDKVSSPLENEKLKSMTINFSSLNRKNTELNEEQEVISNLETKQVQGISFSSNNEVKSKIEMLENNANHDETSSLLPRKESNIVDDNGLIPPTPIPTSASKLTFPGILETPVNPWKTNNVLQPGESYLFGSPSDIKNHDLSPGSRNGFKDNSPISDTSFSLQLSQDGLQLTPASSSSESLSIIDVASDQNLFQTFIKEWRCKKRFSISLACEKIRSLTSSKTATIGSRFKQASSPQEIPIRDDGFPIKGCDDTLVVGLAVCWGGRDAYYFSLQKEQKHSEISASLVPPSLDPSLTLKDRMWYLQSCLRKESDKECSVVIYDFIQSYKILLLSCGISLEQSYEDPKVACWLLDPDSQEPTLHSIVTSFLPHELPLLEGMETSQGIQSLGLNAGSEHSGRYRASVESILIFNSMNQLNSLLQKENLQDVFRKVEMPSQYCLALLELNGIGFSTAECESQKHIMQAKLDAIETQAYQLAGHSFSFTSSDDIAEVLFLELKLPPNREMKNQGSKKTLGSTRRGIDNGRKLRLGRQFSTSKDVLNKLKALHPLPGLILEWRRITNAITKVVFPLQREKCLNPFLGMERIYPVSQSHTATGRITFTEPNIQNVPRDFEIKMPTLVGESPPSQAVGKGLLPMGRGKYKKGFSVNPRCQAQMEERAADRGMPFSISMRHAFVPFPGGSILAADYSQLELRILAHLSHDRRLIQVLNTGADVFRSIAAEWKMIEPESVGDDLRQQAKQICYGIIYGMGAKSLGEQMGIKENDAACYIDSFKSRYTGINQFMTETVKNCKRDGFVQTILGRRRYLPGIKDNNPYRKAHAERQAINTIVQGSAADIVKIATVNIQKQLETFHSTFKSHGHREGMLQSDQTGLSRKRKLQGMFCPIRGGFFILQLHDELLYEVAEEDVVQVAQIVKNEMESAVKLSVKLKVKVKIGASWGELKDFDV
# value in nM; strip the unit string

The cases that follow already have their IC50 on record.
# compound, system-under-test, IC50, nM
data = [
    ("Cc1cc(C(F)(F)F)cc(N2C(=O)N(CCN=S(C)(C)=O)C[C@H]2C(=O)N(C)c2ccc(F)c(Cl)c2)n1", "Polθ protein (amino acids 2-2590) (Homo sapiens)", 62),
    ("Cc1cc(C(F)(F)F)cc(N2C(=O)OC[C@H]2C(=O)N(C)c2ccc(F)c(O)c2)n1", "Polθ protein (amino acids 2-2590) (Homo sapiens)", 324),
    ("CCN(C(=O)[C@@H]1C[C@H](N(C)C2CNC(=O)C2)CN1c1cc(C(F)(F)F)cc(C)n1)c1ccc(F)c(F)c1 (stereo partly shown)", "Polθ protein (amino acids 2-2590) (Homo sapiens)", 708),
    ("Cc1cccc(N(C)C(=O)[C@@H]2C[C@H](O)CN2c2cc(C)c(Cl)c(C)n2)c1", "Polθ protein (amino acids 2-2590) (Homo sapiens)", 172),
    ("CCN(C(=O)[C@@H]1C[C@H](N(C)C2COC2)CN1c1cc(C(F)(F)F)cc(C)n1)c1ccc(F)c(F)c1", "Polθ protein (amino acids 2-2590) (Homo sapiens)", 163),
]

Now examine the next entry.
Query block: What value of IC50 has been reported for the following compound? CCN(C(=O)[C@@H]1C[C@H](N[C@H]2CCC[C@H]2O)CN1c1cc(C(F)(F)F)cc(C)n1)c1ccc(F)c(F)c1
Result block: 124
